These entries and their values trace back to the supplement of paper PMC9177965.

Recorded cell viability activity for the following molecules
# System: HT29 RNF43 G659fs (RNF43 659mut, CRISPR-edited)
# measurement_protocol: cell viability activity relative to DMSO (negative = inhibition); higher = more viable cells (less growth inhibition)
# assay_setup: 5 µM; 96 h

molecule: CN(C)/N=N/c1[nH]cnc1C(N)=O
cell viability activity / %: -31.5
--
molecule: Cc1ccc(C)c(OCCCC(C)(C)C(=O)O)c1
cell viability activity / %: -30
--
molecule: CC(C=CC(=O)NO)=CC(C)C(=O)c1ccc(N(C)C)cc1 (stereo not given)
cell viability activity / %: -95.2
--
molecule: OCCCNc1cc(-c2ccnc(Nc3cccc(Cl)c3)n2)ccn1
cell viability activity / %: -86.6
--
molecule: Nc1c2ccccc2nc2ccccc12
cell viability activity / %: -86.1
--
molecule: OCCNCCCOc1cccc(Cl)c1Cl
cell viability activity / %: -45.4
--
molecule: COC(=O)[C@]12CCC(C)(C)C[C@H]1[C@H]1C(=O)C=C3[C@@]4(C)C=C(C#N)C(=O)C(C)(C)[C@@H]4CC[C@@]3(C)[C@]1(C)CC2
cell viability activity / %: -96.8
--
molecule: CCN(CC)Cc1ccc2cc(COC(=O)Nc3ccc(C(=O)NO)cc3)ccc2c1
cell viability activity / %: -91.4
--
molecule: COc1ccc(C[C@H](NC(=O)[C@H](C)NC(=O)CN2CCOCC2)C(=O)N[C@@H](Cc2ccccc2)C(=O)[C@@]2(C)CO2)cc1
cell viability activity / %: -95.4
--
molecule: Cn1c(=O)c(F)c(Nc2ccc(I)cc2F)c2c(=O)n(C[C@@H](O)CO)cnc21
cell viability activity / %: -86.8
--
molecule: CCc1c2c(nc3ccc(O)cc13)-c1cc3c(c(=O)n1C2)COC(=O)[C@]3(O)CC
cell viability activity / %: -84
--
molecule: CNCCC=C1c2ccccc2CCc2ccccc21
cell viability activity / %: -70.1
--
molecule: O=C(NC1CCNCC1)c1n[nH]cc1NC(=O)c1c(Cl)cccc1Cl
cell viability activity / %: -82.8
--
molecule: Cn1cc(C2=C(c3cn(CCCSC(=N)N)c4ccccc34)C(=O)NC2=O)c2ccccc21
cell viability activity / %: -81.3
--
molecule: N#Cc1ccc(COC[C@H]2O[C@@H](n3c(NCc4ccc(Cl)c(Cl)c4)nc4c(N)ncnc43)[C@H](O)[C@@H]2O)cc1
cell viability activity / %: -24.9
--
molecule: CCC(=O)N1CCN(c2ccc(-n3c(=O)ccc4cnc5ccc(-c6cnc7ccccc7c6)cc5c43)cc2C(F)(F)F)CC1
cell viability activity / %: -56.6
--
molecule: CN(C)CCOc1ccc(/C(=C(/CCCl)c2ccccc2)c2ccccc2)cc1
cell viability activity / %: -85.2
--
molecule: CC(C)C[C@H](NC(=O)[C@H](CCc1ccccc1)NC(=O)CN1CCOCC1)C(=O)N[C@@H](Cc1ccccc1)C(=O)N[C@@H](CC(C)C)C(=O)[C@@]1(C)CO1
cell viability activity / %: -97.1
--
molecule: Nc1ccccc1NC(=O)c1ccc(CNC(=O)OCc2cccnc2)cc1
cell viability activity / %: -71.7
--
molecule: COC(=O)C1=C(C#N)NC(C)=C(C(=O)OC(C)C)C1c1cccc([N+](=O)[O-])c1 (stereo not given)
cell viability activity / %: -44.7
--
molecule: CCN(CC)CCNC(=O)c1ccc(NC(C)=O)cc1
cell viability activity / %: -53.2
--
molecule: O=C(Cc1ccc(-c2ccc(OCCN3CCOCC3)cc2)cn1)NCc1ccccc1
cell viability activity / %: -59.4
--
molecule: COc1cc(Nc2c(C#N)cnc3cc(OCCCN4CCN(C)CC4)c(OC)cc23)c(Cl)cc1Cl
cell viability activity / %: -96.5
--
molecule: Oc1ccc(CC2NCCc3cc(O)c(O)cc32)cc1 (stereo not given)
cell viability activity / %: -63.7
--
molecule: CN[C@H]1CN(c2ccc3c(=O)c(C(=O)O)cn(-c4nccs4)c3n2)C[C@@H]1OC
cell viability activity / %: -60.3
--
molecule: CCNC(=O)Nc1ccc(-c2nc3c(c(N4CCOC[C@@H]4C)n2)CCN(C2COC2)C3)cc1
cell viability activity / %: -36.7
--
molecule: Cc1cc(Nc2cc(N3CCN(C)CC3)nc(Sc3ccc(NC(=O)C4CC4)cc3)n2)n[nH]1
cell viability activity / %: -22.2
--
molecule: Cc1ccc(C(=O)Nc2ccc(CN3CCN(C)CC3)c(C(F)(F)F)c2)cc1C#Cc1cnc2cccnn12
cell viability activity / %: -86.7
--
molecule: CN1CCC(NC(=O)c2cc(-c3c(O)cc(O)cc3Oc3ccc([N+](=O)[O-])cc3)on2)CC1
cell viability activity / %: -26.7
--
molecule: CC(C)Oc1ccc(C(=O)N[C@H](CNC(=O)CN(C)C)Cc2ccc(-c3cn4cccc([C@H](C)O)c4n3)cc2)cc1Cl
cell viability activity / %: -54.6
